Just for reference, the supplement of paper PMC8371130 is where these values come from.

- System: HL-1
- METHOD DESCRIPTION: relative cell viability (CellTiter-Glo) vs DMSO control (% of DMSO control); higher = more viable cells
- EXPERIMENTAL SETUP: oxygen condition: normoxia 72 h; 5000 nM
Counter-ions that a name gives are not always drawn.
RECORDED METRIC: relative cell viability
Returns: the value as a bare number; no unit string appended.

Some solved cases for reference:
{"COMPOUND": "C[C@@](Cc1ccc(O)c(O)c1)(NN)C(=O)O [Carbidopa]", "OBSERVED": 110}
{"COMPOUND": "OCCOCCN1CCN(C2=Nc3ccccc3Sc3ccccc32)CC1 [Quetiapine fumarate]", "OBSERVED": 108}
{"COMPOUND": "Clc1ccc(COC(Cn2ccnc2)c2ccc(Cl)cc2Cl)cc1 (configuration not stated) [Econazole nitrate]", "OBSERVED": 105}
{"COMPOUND": "CC(=O)OCC(CCn1cnc2cnc(N)nc21)COC(C)=O [Famciclovir]", "OBSERVED": 121}
{"COMPOUND": "CC[C@H]1OC(=O)[C@H](C)[C@@H](O[C@H]2C[C@@](C)(OC)[C@@H](O)[C@H](C)O2)[C@H](C)[C@@H](O[C@@H]2O[C@H](C)C[C@H](N(C)C)[C@H]2O)[C@](C)(O)C[C@@H](C)/C(=N\\OCOCCOC)[C@H](C)[C@@H](O)[C@]1(C)O [Roxithromycin]", "OBSERVED": 112}
{"COMPOUND": "CS(=O)(=O)CCNCc1ccc(-c2ccc3ncnc(Nc4ccc(OCc5cccc(F)c5)c(Cl)c4)c3c2)o1 [Lapatinib]", "OBSERVED": 102}

get_value(item= N=C(N)NC(=O)c1nc(Cl)c(N)nc1N [Amiloride hydrochloride] , readout=relative cell viability) returns 109

###

Quick list: relative cell viability per entry.
- Test system: HL-1
- METHOD DESCRIPTION: relative cell viability (CellTiter-Glo) vs DMSO control (% of DMSO control); higher = more viable cells
- EXPERIMENTAL SETUP: oxygen condition: normoxia 72 h; 5000 nM
Where a name gives a salt, the structure may show the parent alone.
Returns: the value as a bare number; no unit string appended.

{"COMPOUND": "O=C(c1ccccc1)c1ccc2n1CCC2C(=O)O (configuration not stated) [Ketorolac]", "TARGET DESC": "HL-1", "relative cell viability": 111}
{"COMPOUND": "O=C1[C@@H]2[C@H]3CC[C@H](C3)[C@@H]2C(=O)N1C[C@@H]1CCCC[C@H]1CN1CCN(c2nsc3ccccc23)CC1 [Lurasidone HCl]", "TARGET DESC": "HL-1", "relative cell viability": 102}
{"COMPOUND": "O=C1N=C(O)NC1(c1ccccc1)c1ccccc1 [Phenytoin sodium]", "TARGET DESC": "HL-1", "relative cell viability": 107}
{"COMPOUND": "COC(=O)C1=C(C)NC(C)=C(C(=O)OC)C1c1ccccc1[N+](=O)[O-] [Nifedipine]", "TARGET DESC": "HL-1", "relative cell viability": 59}
{"COMPOUND": "CCOc1ccccc1OC(c1ccccc1)C1CNCCO1 (configuration not stated) [Reboxetine mesylate]", "TARGET DESC": "HL-1", "relative cell viability": 119}

get_value(item= COC(=O)C1=C(C)NC(C)=C(C(=O)OCCN2CCN(C(c3ccccc3)c3ccccc3)CC2)C1c1cccc([N+](=O)[O-])c1 (configuration not stated) [Manidipine] , readout=relative cell viability) returns 103

get_value(item= CC[C@H](C)C(=O)O[C@H]1CCC=C2C=C[C@H](C)[C@H](CC[C@@H]3C[C@@H](O)CC(=O)O3)[C@H]21 [Mevastatin] , readout=relative cell viability) returns 119

get_value(item= CCCCN(CCCC)CCCOC(=O)c1ccc(N)cc1 [Butacaine] , readout=relative cell viability) returns 104

###

- System: HL-1
- METHOD DESCRIPTION: relative cell viability (CellTiter-Glo) vs DMSO control (% of DMSO control); higher = more viable cells
- EXPERIMENTAL SETUP: oxygen condition: hypoxia 48 h (1% O2) + reoxygenation 24 h; 200 nM
Where a name gives a salt, the structure may show the parent alone.
RECORDED METRIC: relative cell viability
Returns: the value as a bare number; no unit string appended.

{"COMPOUND": "Cc1nccn1CC1CCc2c(c3ccccc3n2C)C1=O (stereo not drawn)", "TARGET DESC": "HL-1", "relative cell viability": 103}
{"COMPOUND": "CC(C)OC(=O)C(C)(C)Oc1ccc(C(=O)c2ccc(Cl)cc2)cc1 [Fenofibrate]", "TARGET DESC": "HL-1", "relative cell viability": 105}
{"COMPOUND": "NCCc1c[nH]cn1 [Histamine Phosphate]", "TARGET DESC": "HL-1", "relative cell viability": 101}
{"COMPOUND": "C[C@]12CC[C@@H]3c4ccc(O)cc4CC[C@H]3[C@@H]1CCC2=O", "TARGET DESC": "HL-1", "relative cell viability": 107}
{"COMPOUND": "Cc1ccc(S(=O)(=O)NC(=O)NN2CC3CCCC3C2)cc1 (stereo not drawn) [Gliclazide]", "TARGET DESC": "HL-1", "relative cell viability": 110}

get_value(item= COC(=O)[C@H]1[C@H]2C[C@@H]3c4[nH]c5cc(OC)ccc5c4CCN3C[C@H]2C[C@@H](OC(=O)c2cc(OC)c(OC)c(OC)c2)[C@@H]1OC , readout=relative cell viability) returns 106

get_value(item= O=C(O)C1=CO[C@@H](O[C@@H]2O[C@H](CO)[C@@H](O)[C@H](O)[C@H]2O)[C@@H]2C(CO)=CC[C@H]12 , readout=relative cell viability) returns 109

get_value(item= CC(C)NC[C@H](O)COc1ccc(CCOCC2CC2)cc1 [Levobetaxolol HCl] , readout=relative cell viability) returns 102

###

Quick list: relative cell viability per entry.
- Test system: HL-1
- METHOD DESCRIPTION: relative cell viability (CellTiter-Glo) vs DMSO control (% of DMSO control); higher = more viable cells
- EXPERIMENTAL SETUP: oxygen condition: hypoxia 48 h (1% O2) + reoxygenation 24 h; 1000 nM
Structures can show the parent of a compound that is named as a salt.

Some solved cases for reference:
{"COMPOUND": "CC(C)(Oc1ccc(CCNC(=O)c2ccc(Cl)cc2)cc1)C(=O)O [Bezafibrate]", "OBSERVED": 105}
{"COMPOUND": "CC(C)(Sc1cc(C(C)(C)C)c(O)c(C(C)(C)C)c1)Sc1cc(C(C)(C)C)c(O)c(C(C)(C)C)c1", "OBSERVED": 104}
{"COMPOUND": "N[C@@H]1CN(c2c(F)cc3c(=O)c(C(=O)O)cn([C@@H]4C[C@@H]4F)c3c2Cl)CC12CC2 [Sitafloxacin hydrate]", "OBSERVED": 104}

get_value(item= Cc1ccc(Nc2nccc(N(C)c3ccc4c(C)n(C)nc4c3)n2)cc1S(N)(=O)=O [Pazopanib HCl] , readout=relative cell viability) returns 105

get_value(item= CCN(CC)C(=O)C1(c2ccccc2)CC1CN (stereo unspecified) [Milnacipran HCl] , readout=relative cell viability) returns 105

get_value(item= CC(C)(Oc1ccc(Cl)cc1)C(=O)O , readout=relative cell viability) returns 108

get_value(item= Nc1ccn([C@@H]2O[C@H](CO)[C@@H](O)[C@@H]2O)c(=O)n1 , readout=relative cell viability) returns 44.9

get_value(item= Clc1ccccc1CN1CCc2sccc2C1 [Ticlopidine HCl] , readout=relative cell viability) returns 97

get_value(item= C=C[C@]1(C)C[C@@H](OC(=O)CS[C@@H]2C[C@H]3CC[C@@H](C2)N3C)[C@]2(C)[C@H](C)CC[C@]3(CCC(=O)[C@H]32)[C@@H](C)[C@@H]1O , readout=relative cell viability) returns 105

get_value(item= Cc1ccccc1C(=O)Nc1ccc(C(=O)N2CCCC(O)c3cc(Cl)ccc32)c(C)c1 (stereo unspecified) , readout=relative cell viability) returns 104

get_value(item= CCC[C@@H]1C[C@@H](C(=O)N[C@@H]([C@H]2O[C@H](SC)[C@H](O)[C@@H](O)[C@H]2O)[C@@H](C)O)N(C)C1 [Lincomycin hydrochloride] , readout=relative cell viability) returns 103

###

- Test system: HL-1
- METHOD DESCRIPTION: relative cell viability (CellTiter-Glo) vs DMSO control (% of DMSO control); higher = more viable cells
- EXPERIMENTAL SETUP: oxygen condition: hypoxia 48 h (1% O2) + reoxygenation 24 h; 40 nM
Where a name gives a salt, the structure may show the parent alone.
RECORDED METRIC: relative cell viability
Returns: the value as a bare number; no unit string appended.

Some solved cases for reference:
{"COMPOUND": "CCOc1nc2cccc(C(=O)O)c2n1Cc1ccc(-c2ccccc2-c2nnn[nH]2)cc1", "RECORDED METRIC": "relative cell viability", "OBSERVED": 110}
{"COMPOUND": "O=C1CCc2cc(OCCCCc3nnnn3C3CCCCC3)ccc2N1", "RECORDED METRIC": "relative cell viability", "OBSERVED": 107}
{"COMPOUND": "CC[C@H](C)C(=O)O[C@H]1C[C@H](O)C=C2C=C[C@H](C)[C@H](CC[C@@H](O)C[C@@H](O)CC(=O)O)[C@H]21 [Pravastatin sodium]", "RECORDED METRIC": "relative cell viability", "OBSERVED": 99.1}

get_value(item= CN(C)CCC(c1ccc(Cl)cc1)c1ccccn1 (centres undefined) [Chlorpheniramine Maleate] , readout=relative cell viability) returns 87.2

get_value(item= O=C1c2c(O)ccc(O)c2C(=O)c2c(NCCNCCO)ccc(NCCNCCO)c21 [Mitoxantrone Hydrochloride] , readout=relative cell viability) returns 4.78

get_value(item= Nc1c2c(nc3ccccc13)CCCC2 [Tacrine HCl] , readout=relative cell viability) returns 91.7

get_value(item= CNC1CCCN(c2c(F)cc3c(=O)c(C(=O)O)cn(C4CC4)c3c2OC)C1 (centres undefined) , readout=relative cell viability) returns 103

get_value(item= NC(=O)NO [Hydroxyurea] , readout=relative cell viability) returns 101

get_value(item= C[C@]12CC[C@@H]3c4ccc(O)cc4CC[C@H]3[C@@H]1CC[C@@H]2O , readout=relative cell viability) returns 105
